- Test system: U-937
- PROTOCOL: Cytotoxicity against human U937 cells after 48 hrs by MTT assay
- Assay type: functional, cell-based
- ASSAY CONTEXT: Homo sapiens, U-937, 48 h
pIC50: −log10 of the molar value.

MOL SMILES	pIC50
Clc1ccc2nc(Nc3nc4ccccc4s3)sc2c1	< 4.30
S=C(Nc1ccccc1)Nc1nc2ccccc2s1	< 4.30
Fc1ccc2nc(NC(=S)Nc3ccccc3)sc2c1	< 4.30
S=C(Nc1ccccc1)Nc1nc2c(Cl)cccc2s1	< 4.30
Cc1ccc2nc(Nc3nc4ccccc4s3)sc2c1	4.31
Cc1ccc2nc(NC(=S)Nc3ccc(F)cc3)sc2c1	< 4.30
CCOc1ccc2nc(Nc3nc4ccccc4s3)sc2c1	< 4.30
Clc1cccc2sc(Nc3nc4ccccc4s3)nc12	< 4.30
CCOc1ccc2nc(NC(=S)Nc3ccc(F)cc3)sc2c1	4.55
Cc1ccc2nc(NC(=S)Nc3ccccc3)sc2c1	< 4.30
